# Tested on: Neuregulin-1 EGF-like domain
# protocol-description: small molecules binding NRG1 EGF domain – biochemical, small-molecule microarray, 635 nm fluorescence, primary screen (AID 1081);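 also: binding of the protein to compounds printed on small-molecule microarray slides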
# measurement-parameters: higher = more signal
Respond with Y for composite z-score values of 1 and above, N for values below.

compound	cat
O=C(NCc1ccccc1)[C@@H]1c2ccccc2C(=O)N(Cc2cc(C(F)(F)F)cc(C(F)(F)F)c2)[C@H]1c1ccc(CO)cc1	Y

# check: composite z-score of O=C1NC(=O)C2C1C=CC(C(O)c1ccc(B(O)O)cc1)N2Nc1ccc(Cl)cc1Cl (centres undefined) is greater than or equal to 1 N

# check: composite z-score of CN1C(=O)C2C(C1=O)C1C=C(CCCO)C2C(C2CC2)N1Cc1cccc(OC(F)(F)F)c1 (centres undefined) is greater than or equal to 1 Y

# check: composite z-score of CC(C)=CCCC(C)=CC(O)C1C=CC2C(=O)NC(=O)C2N1Nc1ccc(Cl)cc1Cl (centres undefined) is greater than or equal to 1 N
